// provenance: paper PMC8199216

Here we list compounds with their recorded IC50 when tested on GLP.
The reply should be a number in µM, with the unit left off.

{"columns": ["Compound", "Readout Units", "IC50"],
 "data": [
  ["CCOc1cc2c(cc1OCCCN1CCCC1)N=C(N)C21CCCC1 [1g]", "µM", 2.97]
]}

Fill in: IC50 on GLP, entry COc1cc2c(cc1OCCCN1CCCC1)N=C(N)C21CCCCC1 [1n]
0.527

# return IC50 of COc1cc2c(cc1OCCCN1CCCC1)N=C(N)C21CCCC1 [1f] (system: GLP)
0.334

Report value: IC50, system: GLP, compound: COc1cc2c(cc1OCCCN1CCCC1)N=C(N)C2(C)C [1p]
0.47

Write down measured IC50 (GLP) for this compound. CCC1(C)C(N)=Nc2cc(OCCCN3CCCC3)c(OC)cc21 (stereo not drawn) [1r]
3.19
